Where do the numbers come from? From patent US20240122905A1.

# EXPERIMENTAL PROTOCOL: PK1: absolute/subcutaneous bioavailability study of Tacrolimus solution (IV and SC)
# Assay type: in vivo, female Göttingen minipig
# TEST CONDITIONS: female, Göttingen, minipig; Tacrolimus solution 2.5 mg/animal IV; whole blood
ENDPOINT NAME: AUC(0-t) (ng·h/mL)
Report the figure in ng·h/mL without appending any unit label.

QUERY: Which AUC(0-t) is listed for C=CC[C@@H]1/C=C(\C)C[C@H](C)C[C@H](OC)[C@H]2O[C@@](O)(C(=O)C(=O)N3CCCC[C@H]3C(=O)OC(/C(C)=C/[C@@H]3CC[C@@H](O)[C@H](OC)C3)[C@H](C)[C@@H](O)CC1=O)[C@H](C)C[C@@H]2OC (stereo partly shown) [Tacrolimus] ?
RESULT: 1850

---

# EXPERIMENTAL PROTOCOL: PK1: absolute/subcutaneous bioavailability study of Tacrolimus solution (IV and SC)
# Format: in vivo, female Göttingen minipig
# TEST CONDITIONS: female, Göttingen, minipig; Tacrolimus solution 2.5 mg/animal IV; whole blood
# Method: PK1: A 2-Month Pharmacokinetic Study of Different Sustained-Release Formulations of Tacrolimus after Subcutaneous Administration and Subcutaneous Bioavailability Study of Tacrolimus in Female Göttingen Minipig Evaluation of the Absolute Bioavailability of Tacrolimus The dose volume for each animal was 12.5 mL corresponding to a unique dose of 2.5 mg/animal. […] Whole blood samples were analyzed to determine the concentration of the test item using a qualified analytical procedure. […]
ENDPOINT NAME: AUC(0-inf) (ng·h/mL)
Express your answer in ng·h/mL, writing the number without its unit.

QUERY: What does the data say about its AUC(0-inf)? Entry: C=CC[C@@H]1/C=C(\C)C[C@H](C)C[C@H](OC)[C@H]2O[C@@](O)(C(=O)C(=O)N3CCCC[C@H]3C(=O)OC(/C(C)=C/[C@@H]3CC[C@@H](O)[C@H](OC)C3)[C@H](C)[C@@H](O)CC1=O)[C@H](C)C[C@@H]2OC (stereo partly shown)
RESULT: 2040

---

# EXPERIMENTAL PROTOCOL: PK1: absolute/subcutaneous bioavailability study of Tacrolimus solution (IV and SC)
# Type: in vivo, female Göttingen minipig
# TEST CONDITIONS: female, Göttingen, minipig; Tacrolimus solution 2.5 mg/animal SC; whole blood
ENDPOINT NAME: Cmax (ng/mL)
Answer with a number only, understood to be in ng/mL.

QUERY: Cmax lookup needed for C=CC[C@@H]1/C=C(\C)C[C@H](C)C[C@H](OC)[C@H]2O[C@@](O)(C(=O)C(=O)N3CCCC[C@H]3C(=O)OC(/C(C)=C/[C@@H]3CC[C@@H](O)[C@H](OC)C3)[C@H](C)[C@@H](O)CC1=O)[C@H](C)C[C@@H]2OC (stereo partly shown) , thanks.
RESULT: 80.2
